Target: Glutamate receptor ionotropic, kainate 2 (Homo sapiens, UniProt Q13002)
Sequence (Q13002 whole entry): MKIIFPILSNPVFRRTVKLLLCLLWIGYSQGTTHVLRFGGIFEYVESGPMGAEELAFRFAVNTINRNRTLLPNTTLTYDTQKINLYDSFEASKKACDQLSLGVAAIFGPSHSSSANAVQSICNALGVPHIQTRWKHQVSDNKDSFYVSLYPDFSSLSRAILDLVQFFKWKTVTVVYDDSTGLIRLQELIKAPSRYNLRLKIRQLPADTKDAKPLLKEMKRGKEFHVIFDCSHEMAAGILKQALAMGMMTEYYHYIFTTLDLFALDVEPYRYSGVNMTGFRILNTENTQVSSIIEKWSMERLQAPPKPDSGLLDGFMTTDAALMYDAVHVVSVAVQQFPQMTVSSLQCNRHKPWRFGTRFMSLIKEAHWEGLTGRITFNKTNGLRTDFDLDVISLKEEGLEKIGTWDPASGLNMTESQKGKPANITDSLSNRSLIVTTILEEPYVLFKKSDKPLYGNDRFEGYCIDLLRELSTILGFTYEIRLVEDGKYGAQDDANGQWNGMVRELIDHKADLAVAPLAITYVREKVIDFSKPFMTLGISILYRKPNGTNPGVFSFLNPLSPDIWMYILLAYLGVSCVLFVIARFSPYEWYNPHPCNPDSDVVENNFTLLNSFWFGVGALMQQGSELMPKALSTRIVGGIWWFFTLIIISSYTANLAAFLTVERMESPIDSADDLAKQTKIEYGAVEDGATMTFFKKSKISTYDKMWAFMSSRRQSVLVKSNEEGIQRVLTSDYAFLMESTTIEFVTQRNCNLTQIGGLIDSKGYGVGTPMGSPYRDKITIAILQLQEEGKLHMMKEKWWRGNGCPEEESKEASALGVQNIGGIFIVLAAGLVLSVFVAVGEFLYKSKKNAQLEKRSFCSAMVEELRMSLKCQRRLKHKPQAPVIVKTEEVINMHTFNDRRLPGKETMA
pKi: −log10 of the molar value.

{"columns": ["molecule", "system under test", "value operator", "pKi"],
 "data": [
  ["C=C(c1cccc(OC)c1)[C@H]1CN[C@H](C(=O)O)[C@H]1CC(=O)O", "Glutamate receptor ionotropic, kainate 2 (Homo sapiens, UniProt Q13002)", "=", 7.03],
  ["C=C(c1ccccc1)[C@@H]1CN[C@H](C(=O)O)[C@H]1CC(=O)O", "Glutamate receptor ionotropic, kainate 2 (Homo sapiens, UniProt Q13002)", "=", 5.16],
  ["C=C(c1cccc(OCCCC)c1)[C@H]1CN[C@H](C(=O)O)[C@H]1CC(=O)O", "Glutamate receptor ionotropic, kainate 2 (Homo sapiens, UniProt Q13002)", "=", 6.56],
  ["C=C(c1ccc(F)cc1)[C@H]1CN[C@H](C(=O)O)[C@H]1CC(=O)O", "Glutamate receptor ionotropic, kainate 2 (Homo sapiens, UniProt Q13002)", "=", 7.42],
  ["C=C(c1ccc(OCCc2ccccc2)c(C)c1)[C@H]1CN[C@H](C(=O)O)[C@H]1CC(=O)O", "Glutamate receptor ionotropic, kainate 2 (Homo sapiens, UniProt Q13002)", "=", 6.89],
  ["C=C(c1ccc(Cl)cc1)[C@H]1CN[C@H](C(=O)O)[C@H]1CC(=O)O", "Glutamate receptor ionotropic, kainate 2 (Homo sapiens, UniProt Q13002)", "=", 7.50],
  ["C=C(c1ccc(OCCCC)cc1)[C@H]1CN[C@H](C(=O)O)[C@H]1CC(=O)O", "Glutamate receptor ionotropic, kainate 2 (Homo sapiens, UniProt Q13002)", "=", 6.83],
  ["C=C(C)c1ccc(C(=C)[C@H]2CN[C@H](C(=O)O)[C@H]2CC(=O)O)cc1", "Glutamate receptor ionotropic, kainate 2 (Homo sapiens, UniProt Q13002)", "=", 6.88],
  ["C=C(c1ccc(CCCC)cc1)[C@H]1CN[C@H](C(=O)O)[C@H]1CC(=O)O", "Glutamate receptor ionotropic, kainate 2 (Homo sapiens, UniProt Q13002)", "=", 6.84],
  ["C=C(c1ccc(C(C)(C)C)cc1)[C@H]1CN[C@H](C(=O)O)[C@H]1CC(=O)O", "Glutamate receptor ionotropic, kainate 2 (Homo sapiens, UniProt Q13002)", "=", 6.58],
  ["C=C(c1cccc(-c2ccccc2)c1)[C@@H]1CN[C@H](C(=O)O)[C@H]1CC(=O)O", "Glutamate receptor ionotropic, kainate 2 (Homo sapiens, UniProt Q13002)", "=", 5.51],
  ["C=C(c1ccc(CCC)cc1)[C@H]1CN[C@H](C(=O)O)[C@H]1CC(=O)O", "Glutamate receptor ionotropic, kainate 2 (Homo sapiens, UniProt Q13002)", "=", 6.83],
  ["CC(c1ccccc1)[C@H]1CN[C@H](C(=O)O)[C@H]1CC(=O)O (stereo not given in full)", "Glutamate receptor ionotropic, kainate 2 (Homo sapiens, UniProt Q13002)", "<", 5.00],
  ["C=C(c1ccc(OC)cc1)[C@H]1CN[C@H](C(=O)O)[C@H]1CC(=O)O", "Glutamate receptor ionotropic, kainate 2 (Homo sapiens, UniProt Q13002)", "=", 7.24],
  ["C=C(c1ccc(C)c(C)c1)[C@H]1CN[C@H](C(=O)O)[C@H]1CC(=O)O", "Glutamate receptor ionotropic, kainate 2 (Homo sapiens, UniProt Q13002)", "=", 6.97],
  ["CC(c1cccc(-c2ccccc2)c1)[C@H]1CN[C@H](C(=O)O)[C@H]1CC(=O)O (stereo not given in full)", "Glutamate receptor ionotropic, kainate 2 (Homo sapiens, UniProt Q13002)", "<", 5.00],
  ["C=C(c1ccc(OCCCCCc2ccccc2)cc1)[C@H]1CN[C@H](C(=O)O)[C@H]1CC(=O)O", "Glutamate receptor ionotropic, kainate 2 (Homo sapiens, UniProt Q13002)", "=", 5.89],
  ["C=C(c1cccc(-c2ccccc2)c1)[C@H]1CN[C@H](C(=O)O)[C@H]1CC(=O)O", "Glutamate receptor ionotropic, kainate 2 (Homo sapiens, UniProt Q13002)", "=", 7.04],
  ["C=C(c1ccc(CC)cc1)[C@H]1CN[C@H](C(=O)O)[C@H]1CC(=O)O", "Glutamate receptor ionotropic, kainate 2 (Homo sapiens, UniProt Q13002)", "=", 7.09],
  ["C=C(c1ccc(-c2ccccc2)cc1)[C@H]1CN[C@H](C(=O)O)[C@H]1CC(=O)O", "Glutamate receptor ionotropic, kainate 2 (Homo sapiens, UniProt Q13002)", "=", 6.88]
]}
